Measured values drawn from paper PMC11320734 for this set.

- TEST: Brain penetration study with/without P-gp inhibitor tariquidar
- Type: in vivo, male C57/BL6 mice
- EXPERIMENTAL_SETUP: male, C57/BL6, mouse, plasma, iv; RNB-61 1 mg kg^–1 i.v., no tariquidar; read-out: plasma AUClast
QUANTITY: AUC(0-t) (ng·h/mL)
The answer is to be given in ng·h/mL; state only the numeric part.

INPUT: # get_value(readout='AUC(0-t)', item= Cn1c(C(C)(C)C)cc(=NC(=O)c2cc(C(F)(F)F)ccc2OCC(C)(C)O)n1CC1CCC1 )
OUTPUT: 2430

----------
- TEST: Brain penetration study with/without P-gp inhibitor tariquidar
- Assay type: in vivo, male C57/BL6 mice
- EXPERIMENTAL_SETUP: male, C57/BL6, mouse, plasma, iv; RNB-61 1 mg kg^–1 i.v., no tariquidar; read-out: plasma CL (converted)
QUANTITY: clearance (mL/min/kg)
The answer is to be given in mL/min/kg; state only the numeric part.

INPUT: # get_value(readout='clearance', item= Cn1c(C(C)(C)C)cc(=NC(=O)c2cc(C(F)(F)F)ccc2OCC(C)(C)O)n1CC1CCC1 )
OUTPUT: 5.02

----------
- Test system: P-gp
- TEST: Brain penetration study with/without P-gp inhibitor tariquidar
- Type: in vivo, male C57/BL6 mice
- EXPERIMENTAL_SETUP: male, C57/BL6, mouse, plasma, iv, with tariquidar 5 mg kg^–1 i.v. bolus, 30 min prior to RNB-61; RNB-61 1 mg kg^–1 i.v. + tariquidar 5 mg kg^–1 i.v.
QUANTITY: Cmax
Answer with the figure and its unit, nothing else.

INPUT: # get_value(readout='Cmax', item= Cn1c(C(C)(C)C)cc(=NC(=O)c2cc(C(F)(F)F)ccc2OCC(C)(C)O)n1CC1CCC1 )
OUTPUT: 737 ng/mL

----------
- TEST: Single-dose pharmacokinetics in male Wistar rats
- Assay type: in vivo
- EXPERIMENTAL_SETUP: rat, plasma, iv, 1 mg kg^–1 i.v.
QUANTITY: Tmax (min)
The answer is to be given in min; state only the numeric part.

INPUT: # get_value(readout='Tmax', item= Cn1c(C(C)(C)C)cc(=NC(=O)c2cc(C(F)(F)F)ccc2OCC(C)(C)O)n1CC1CCC1 )
OUTPUT: 4.98

----------
- TEST: Brain penetration study with/without P-gp inhibitor tariquidar
- Format: in vivo, male C57/BL6 mice
- EXPERIMENTAL_SETUP: male, C57/BL6, mouse, brain, iv; RNB-61 1 mg kg^–1 i.v., no tariquidar; read-out: brain Tmax
QUANTITY: Tmax
Answer with the figure and its unit, nothing else.

INPUT: # get_value(readout='Tmax', item= Cn1c(C(C)(C)C)cc(=NC(=O)c2cc(C(F)(F)F)ccc2OCC(C)(C)O)n1CC1CCC1 [RNB-61] )
OUTPUT: 34.8 min

----------
- TEST: Fraction unbound in plasma
- Type: in vitro ADME
- EXPERIMENTAL_SETUP: mouse
QUANTITY: fraction unbound
Note: the reply should be a number with no unit written.

INPUT: # get_value(readout='fraction unbound', item= Cn1c(C(C)(C)C)cc(=NC(=O)c2cc(C(F)(F)F)ccc2OCC(C)(C)O)n1CC1CCC1 [RNB-61] )
OUTPUT: 0.019
